target.entity: Peroxisome proliferator-activated receptor alpha (Homo sapiens, UniProt Q07869)
test.method.notes: Agonist response against human PPAR alpha in transactivation assay
measured.metric: log10 of EC50 (log10 of the value in µM)

compound	log10 of EC50
CCCc1cc2c(=O)n(C(C)C)oc2c(CCC)c1O[C@H](C(=O)O)c1ccc(C(C)C)cc1	-0.57
CCCc1cc2c(=O)n(C)oc2c(CCC)c1O[C@H](C(=O)O)c1ccc(C(C)C)cc1	-0.17
CCCc1cc(C(=O)CC)cc(CCC)c1O[C@H](C(=O)O)c1ccc(CC)cc1	-1.12
CCCc1cc(C(=O)CC)cc(C)c1OC(C(=O)O)c1ccc(C(C)C)cc1 (stereo not given)	-0.80
CCCc1cc(C(=O)CC)cc(CCC)c1O[C@H](C(=O)O)c1ccc(C(C)C)cc1	-1.25
CCCc1cc(C(=O)C(C)(C)C)cc(CCC)c1OC(C(=O)O)c1ccccc1 (stereo not given)	-0.80
CCCc1cc2c(oc(=O)n2CC(F)(F)F)c(CCC)c1O[C@H](C(=O)O)c1ccc(C(C)C)cc1	-0.51
CCCc1cc(C(=O)CC)cc(CCC)c1O[C@H](C(=O)O)c1ccc(CC(C)C)cc1	-1.41
CCCc1cc(C(=O)CC)cc(CCC)c1OC(C(=O)O)c1ccccc1 (stereo not given)	-1.00
CCCc1cc(C(=O)CC)cc(Cl)c1O[C@H](C(=O)O)c1ccc(C(C)C)cc1	-0.59

* * *

target.entity: Peroxisome proliferator-activated receptor alpha (Homo sapiens, UniProt Q07869)
Sequence (Q07869 whole entry): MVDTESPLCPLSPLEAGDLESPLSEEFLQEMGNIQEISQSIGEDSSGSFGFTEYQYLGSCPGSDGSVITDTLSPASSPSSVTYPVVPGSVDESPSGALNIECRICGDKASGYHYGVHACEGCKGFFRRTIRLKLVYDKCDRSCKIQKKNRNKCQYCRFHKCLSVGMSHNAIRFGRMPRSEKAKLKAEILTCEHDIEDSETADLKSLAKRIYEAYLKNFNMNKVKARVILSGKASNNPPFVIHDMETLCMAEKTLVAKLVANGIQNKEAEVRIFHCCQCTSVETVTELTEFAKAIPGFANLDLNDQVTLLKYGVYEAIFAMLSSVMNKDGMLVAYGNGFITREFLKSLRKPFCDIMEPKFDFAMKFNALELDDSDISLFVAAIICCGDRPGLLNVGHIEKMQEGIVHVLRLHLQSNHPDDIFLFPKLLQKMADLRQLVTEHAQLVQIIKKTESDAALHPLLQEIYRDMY
test.method.notes: In vitro binding affinity for human PPAR alpha
Please note: IC50 exactly at 100 nM is FALSE. Only values below 100 nM get TRUE.

compound	classification
CCCc1cc2c(=O)n(C)oc2c(CCC)c1O[C@H](C(=O)O)c1ccc(C(C)C)cc1	TRUE
CCCc1cc2c(oc(=O)n2CCC)c(CCC)c1O[C@H](C(=O)O)c1ccc(C(C)C)cc1	FALSE
CCCc1cc2c(oc(=O)n2CC)c(CCC)c1O[C@H](C(=O)O)c1ccc(C(C)C)cc1	TRUE
CCCc1cc(C(=O)C(C)(C)C)cc(CCC)c1OC(C(=O)O)c1ccccc1 (stereo not given)	FALSE
CCCc1cc(C(=O)CC)cc(CCC)c1O[C@H](C(=O)O)c1ccc(C(F)(F)F)cc1	TRUE
CCC(=O)c1ccc(OC(C(=O)O)c2ccccc2)cc1 (stereo not given)	FALSE
CCC(=O)c1cc(C(C)CC)c(OC(C(=O)O)c2ccccc2)c(C(C)CC)c1 (stereo not given)	FALSE
CCCc1cc(C(=O)CC)cc(CCC)c1OC(C(=O)O)c1ccccc1 (stereo not given)	TRUE
CCCc1cc2c(oc(=O)n2CC2CC2)c(CCC)c1O[C@H](C(=O)O)c1ccc(C(C)C)cc1	FALSE
CCCc1cc(C(=O)CC)cc(CCC)c1O[C@H](C(=O)O)c1ccc(CC(C)C)cc1	TRUE
CCCc1cc2c(oc(=O)n2C(C)C)c(CCC)c1O[C@H](C(=O)O)c1ccccc1	FALSE
CCC(=O)c1cc(C)c(OC(C(=O)O)c2ccccc2)c(C)c1 (stereo not given)	FALSE
CCCc1cc(C(=O)C(C)C)cc(CCC)c1OC(C(=O)O)c1ccccc1 (stereo not given)	FALSE
CCCc1c(O[C@H](C(=O)O)c2ccc(C(C)C)cc2)c(Cl)cc2c1oc(=O)n2CC	FALSE
